Source listed as the supplement of paper PMC6555819.

- System: LXRa homodimer (NR concentration 270 nM)
- Test Name: PBM binding z-score (relative to random genomic background probes); higher = stronger binding; sequences stand for … in GC…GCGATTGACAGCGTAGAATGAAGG
Please note: Criterion met applies when PBM binding z-score is 0.3 or greater, and Criterion not met applies otherwise.

- Query Sequence: "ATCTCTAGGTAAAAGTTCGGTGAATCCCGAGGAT"
  Category Label: "Criterion not met"
- Query Sequence: "TCTCGGAGGACACGAAAGTTCAGAGCTCGACATC"
  Category Label: "Criterion met"
- Query Sequence: "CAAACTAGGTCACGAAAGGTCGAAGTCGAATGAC"
  Category Label: "Criterion met"
- Query Sequence: "ACTTACGGGTCAACGAGGCTATAGCACGCGTATA"
  Category Label: "Criterion not met"
- Query Sequence: "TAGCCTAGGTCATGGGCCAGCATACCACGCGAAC"
  Category Label: "Criterion not met"
- Query Sequence: "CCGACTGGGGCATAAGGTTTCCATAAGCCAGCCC"
  Category Label: "Criterion not met"
- Query Sequence: "ATCTCTAGGTAACCGAGTTCAGTGAATGCCGAAC"
  Category Label: "Criterion met"
- Query Sequence: "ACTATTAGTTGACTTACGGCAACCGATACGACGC"
  Category Label: "Criterion not met"
- Query Sequence: "AGTCAAAGATCATCTAGGTAACGTAAGATATGCT"
  Category Label: "Criterion not met"
- Query Sequence: "CCTAGTTGGTCAGGAGGTCACAGACCGGATATGA"
  Category Label: "Criterion met"
- Query Sequence: "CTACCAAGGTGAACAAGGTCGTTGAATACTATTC"
  Category Label: "Criterion not met"
- Query Sequence: "TCTTGTAGATCAGCAGGTTAGGAAAGCTGGCCAA"
  Category Label: "Criterion not met"
- Query Sequence: "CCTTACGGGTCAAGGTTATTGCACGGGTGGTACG"
  Category Label: "Criterion not met"
- Query Sequence: "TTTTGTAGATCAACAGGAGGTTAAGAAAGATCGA"
  Category Label: "Criterion met"
- Query Sequence: "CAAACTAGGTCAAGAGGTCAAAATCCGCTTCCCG"
  Category Label: "Criterion met"
- Query Sequence: "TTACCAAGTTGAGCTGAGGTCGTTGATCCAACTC"
  Category Label: "Criterion not met"
- Query Sequence: "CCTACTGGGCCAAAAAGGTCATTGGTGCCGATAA"
  Category Label: "Criterion met"
- Query Sequence: "TCTATTAGTGGAAGGGCAACCGACGAGTCCGTTT"
  Category Label: "Criterion not met"
- Query Sequence: "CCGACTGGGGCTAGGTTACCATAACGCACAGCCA"
  Category Label: "Criterion not met"
- Query Sequence: "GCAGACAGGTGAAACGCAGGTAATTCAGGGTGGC"
  Category Label: "Criterion not met"
- Query Sequence: "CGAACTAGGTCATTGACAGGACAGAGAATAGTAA"
  Category Label: "Criterion met"
- Query Sequence: "ATCGAAAGGTCGAGGTGAGGATAGAGAAAGGGAA"
  Category Label: "Criterion not met"
- Query Sequence: "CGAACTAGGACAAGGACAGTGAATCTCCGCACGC"
  Category Label: "Criterion not met"
- Query Sequence: "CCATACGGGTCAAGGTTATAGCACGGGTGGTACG"
  Category Label: "Criterion not met"
- Query Sequence: "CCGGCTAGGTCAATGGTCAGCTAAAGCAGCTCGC"
  Category Label: "Criterion not met"
- Query Sequence: "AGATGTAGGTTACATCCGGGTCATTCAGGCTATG"
  Category Label: "Criterion met"
- Query Sequence: "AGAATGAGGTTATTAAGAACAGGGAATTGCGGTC"
  Category Label: "Criterion not met"
- Query Sequence: "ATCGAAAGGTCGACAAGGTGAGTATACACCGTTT"
  Category Label: "Criterion not met"
- Query Sequence: "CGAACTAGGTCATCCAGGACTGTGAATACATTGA"
  Category Label: "Criterion met"
- Query Sequence: "TCGAGTAGTTTAGGGGCATTCAGAATGGCGTCGA"
  Category Label: "Criterion not met"
- Query Sequence: "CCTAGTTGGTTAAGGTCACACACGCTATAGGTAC"
  Category Label: "Criterion met"
- Query Sequence: "AACGAAAGGTCGAGGTGAGTATAGAGAAAGGGAA"
  Category Label: "Criterion not met"
- Query Sequence: "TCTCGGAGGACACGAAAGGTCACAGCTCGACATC"
  Category Label: "Criterion met"
- Query Sequence: "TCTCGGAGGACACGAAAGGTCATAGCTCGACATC"
  Category Label: "Criterion met"
- Query Sequence: "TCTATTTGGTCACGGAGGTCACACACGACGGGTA"
  Category Label: "Criterion met"
- Query Sequence: "GCTAGCAGGCCAATTGGGTCACTCAATGACGGGC"
  Category Label: "Criterion not met"
- Query Sequence: "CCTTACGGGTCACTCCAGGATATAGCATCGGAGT"
  Category Label: "Criterion met"
- Query Sequence: "CGTACAAGGTCAGAGAGGTCAGTGAATGCCGAGT"
  Category Label: "Criterion met"
- Query Sequence: "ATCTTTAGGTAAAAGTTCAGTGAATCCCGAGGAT"
  Category Label: "Criterion met"
- Query Sequence: "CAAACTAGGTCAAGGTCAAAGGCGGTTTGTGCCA"
  Category Label: "Criterion met"
- Query Sequence: "ACTTACGGGTGAACGAGGTTATAGCACGCGTATA"
  Category Label: "Criterion not met"
- Query Sequence: "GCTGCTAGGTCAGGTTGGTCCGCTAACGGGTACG"
  Category Label: "Criterion not met"
- Query Sequence: "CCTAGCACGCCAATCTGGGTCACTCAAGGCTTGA"
  Category Label: "Criterion not met"
- Query Sequence: "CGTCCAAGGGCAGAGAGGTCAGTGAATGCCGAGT"
  Category Label: "Criterion met"
- Query Sequence: "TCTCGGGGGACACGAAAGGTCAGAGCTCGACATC"
  Category Label: "Criterion met"
- Query Sequence: "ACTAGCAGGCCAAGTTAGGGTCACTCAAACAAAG"
  Category Label: "Criterion not met"
- Query Sequence: "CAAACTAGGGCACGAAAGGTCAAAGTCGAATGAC"
  Category Label: "Criterion met"
- Query Sequence: "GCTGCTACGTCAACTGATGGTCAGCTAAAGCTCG"
  Category Label: "Criterion not met"
- Query Sequence: "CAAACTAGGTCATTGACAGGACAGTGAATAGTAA"
  Category Label: "Criterion met"
- Query Sequence: "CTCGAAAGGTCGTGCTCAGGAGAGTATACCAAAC"
  Category Label: "Criterion not met"
